Catalogue of molecules with associated pIC50
# target-system: Human LBAT (Homo sapiens, UniProt Q14973)
# Construct: Geneticin-selected
# Sequence (Q14973 whole entry): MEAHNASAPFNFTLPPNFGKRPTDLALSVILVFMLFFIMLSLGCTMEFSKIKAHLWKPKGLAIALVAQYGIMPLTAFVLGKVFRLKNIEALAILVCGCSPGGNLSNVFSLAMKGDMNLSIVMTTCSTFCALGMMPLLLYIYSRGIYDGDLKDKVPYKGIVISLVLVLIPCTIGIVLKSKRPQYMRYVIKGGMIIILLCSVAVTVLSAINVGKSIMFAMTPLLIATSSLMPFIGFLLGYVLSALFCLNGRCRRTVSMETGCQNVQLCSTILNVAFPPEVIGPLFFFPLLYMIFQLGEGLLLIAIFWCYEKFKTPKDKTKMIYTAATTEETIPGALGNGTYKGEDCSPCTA
# assay-details: LBAT (h/m) assay, human LBAT-overexpressing cells, 3H-taurocholic acid uptake
# stated-conditions: 0.3 μM 3H-taurocholic acid and 7.5 μM cold taurocholic acid, 20 minutes, read-out: hLBAT IC50
# Experimental: LBAT (h/m) Assay Protocol 20,000 cells (Human or Mouse LBAT-overexpressing cells) were seeded in 96-wells plate (Corning CLS3809) in 100 μL MEM-alpha medium (Gibco 12571-063) supplemented with 10% FBS (Gibco 10438026) containing Geneticin (Gibco 10131-027) (1 mg/mL) and incubated at 37° C. in 5% CO2 for 24 hours. After incubation, media was decanted from the wells and cells were washed two times with 300 μL of basal MEM-alpha medium (FBS-free). […]
The scale used: pIC50 is minus the common logarithm of the concentration in molar units.

Worked cases, pIC50 given:
Query: Quick one: pIC50 for CCCCC1(CCCC)CN(c2ccccc2)c2cc(Cl)c(OCCC(=O)O)cc2S(=O)(=O)C1 ?
Response: 6.42

Query: Quick one: pIC50 for CCCCC1(C)CN(c2ccccc2)c2cc(N(C)C)c(OCCC(=O)O)cc2S(=O)(=O)C1 (single isomer, unassigned) [29, enantiomer 1] ?
Response: 5.59

New cases:
Query: Quick one: pIC50 for CCCCC1(CCCC)CN(c2ccc(F)cc2)c2cc(SC)c(OCCC(=O)O)cc2S(=O)(=O)C1 ?
Response: 5.81

Query: Quick one: pIC50 for CCCCC1(C)CN(c2ccccc2)c2cc(N(C)C)c(OCCC(=O)O)cc2S(=O)(=O)C1 (single isomer, unassigned) [29, enantiomer 2] ?
Response: 5.48

Query: Quick one: pIC50 for CCCCC1(CCCC)CN(c2ccccc2)c2cc(SC)c(OCC(O)C(=O)O)cc2S(=O)(=O)C1 (single isomer, unassigned) [Example 11] ?
Response: 6.21

Query: Quick one: pIC50 for CCCCC1(CC)CN(c2ccccc2)c2cc(Br)c(OCCC(=O)O)cc2S(=O)(=O)C1 (racemic) [Example 1] ?
Response: 5.66
